# test_system: Mu opioid receptor (MOR) (Homo sapiens, UniProt P35372); note: unit not given here
# Sequence (P35372 whole entry): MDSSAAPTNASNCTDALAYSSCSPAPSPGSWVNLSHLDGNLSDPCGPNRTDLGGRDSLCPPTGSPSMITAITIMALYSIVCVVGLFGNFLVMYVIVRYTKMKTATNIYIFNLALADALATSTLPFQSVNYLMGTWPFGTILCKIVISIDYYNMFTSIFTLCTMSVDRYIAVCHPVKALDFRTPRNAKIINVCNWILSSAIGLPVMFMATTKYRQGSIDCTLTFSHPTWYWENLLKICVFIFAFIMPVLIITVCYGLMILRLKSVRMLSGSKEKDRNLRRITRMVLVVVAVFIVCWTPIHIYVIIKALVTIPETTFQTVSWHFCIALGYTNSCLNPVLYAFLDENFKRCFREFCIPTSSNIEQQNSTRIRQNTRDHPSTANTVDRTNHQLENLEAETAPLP
# run_description: cell-based
# Format: cell-based
Square brackets hold non-standard residues; d marks the D form. Peptide text beside a SMILES is read from it. Sar = CNCC(=O)O
attribute_measured: cAMP assay MOR 1 μM

- CC(C)C[C@H](NC(=O)[C@H](Cc1ccccc1)NC(=O)CN(C)C(=O)[C@@H](N)Cc1ccc(O)cc1)C(=O)N[C@H](CCCNC(=N)N)C(=O)N[C@H](CCCNC(=N)N)C(N)=O [SEQ ID NO. 7, NH2-Tyr-Sar-Phe-Leu-DArg-DArg-NH2] (H-Y[Sar]FL[dR][dR]-NH2): 0.13
- CC(C)C[C@H](NC(=O)[C@H](Cc1ccccc1)NC(=O)CN(C)C(=O)[C@@H](N)Cc1ccc(O)cc1)C(=O)N[C@H](CCCNC(=N)N)C(=O)N[C@@H](CCCNC(=N)N)C(N)=O [SEQ ID NO. 6, NH2-Tyr-Sar-Phe-Leu-DArg-Arg-NH2] (H-Y[Sar]FL[dR]R-NH2): 1.04
